Entries annotated with measured Th-T fluorescence, mean of three wells
# Measured on: Aβ42 (Homo sapiens, UniProt P05067)
# Sequence (P05067 672-713): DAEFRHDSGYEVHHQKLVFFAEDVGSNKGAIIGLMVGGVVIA
# Experiment notes: Th-T (thioflavin-T) assay of Aβ42 aggregation
# Format: biochemical
# Condition details: Supplementary Fig. 47; reading M142
Observable: Th-T fluorescence, mean of three wells

Molecule: C=C1CC[C@H]2[C@]3(C)C[C@@H](C=C(C)C)O[C@H]3CC[C@]2(C)[C@@H]1Cc1c(O)c(C)c(C)oc1=O
Value observed: 2.63

Molecule: C=C1CC[C@H]2[C@]3(C)C[C@H](C=C(C)C)O[C@H]3CC[C@]2(C)[C@@H]1Cc1c(OC)oc(CO)c(C)c1=O
Value observed: 3.721

Molecule: C=C1CCC2C(C)(CCC=C(C)C)C(O)CCC2(C)C1Cc1c(O)c(C)c(C)oc1=O (stereo not drawn) [Compound 9, higginsianin B]
Value observed: 2.77

Molecule: C=C1CCC2C3(C)CC(C=C(C)C)OC3CCC2(C)C1Cc1c(OC)oc(C)c(C)c1=O (stereo not drawn)
Value observed: 3.722

Molecule: C=C1CCC2C(C)(CC(=O)C=C(C)C)C(O)CCC2(C)C1Cc1c(OC)oc(CO)c(C)c1=O (stereo not drawn)
Value observed: 3.567

Molecule: CC(C)=CCC/C(C)=C/CC/C(C)=C/CC/C(C)=C/Cc1c(O)c(C)c(C)oc1=O
Value observed: 2.9414

Molecule: C=C1CCC2C(C)(CC(=O)C=C(C)C)C(O)CCC2(C)C1Cc1c(OC)oc(C)c(C)c1=O (stereo not drawn)
Value observed: 3.5241

Molecule: C=C1CCC2C(C)(CCC=C(C)C)C(O)CCC2(C)C1Cc1c(OC)oc(C)c(C)c1=O (stereo not drawn) [Compound 15, viridoxin A hydrolysate]
Value observed: 3.34

Molecule: C=C1CC[C@H]2[C@]3(C)C[C@H](C=C(C)C)O[C@H]3CC[C@]2(C)[C@@H]1Cc1c(OC)oc(C)c(C)c1=O
Value observed: 3.823
